tested on: SW620D cells (doxorubicin-resistant); experiment: Neutral red uptake viability assay, SW620D; format: cell-based, human; conditions: 1 μM, 72 h, n = 3, ± SD
Catalogue of survival rate readings, one per entry.
The reply should contain only the number, in %.

O=C1N/C(=C\c2ccccc2)C(=O)N2CCC[C@@H]12 [(S,Z)-4e]: 96

Fill in reported survival rate for this entry: O=C1N/C(=C/c2cccc(-[c-]3cccc3)c2)C(=O)N2CCC[C@@H]12.[Fe+2].c1cc[cH-]c1 [(S,E)-4c]
95

Fill in reported survival rate for this entry: O=C1N/C(=C\c2ccccc2-[c-]2cccc2)C(=O)N2CCC[C@@H]12.[Fe+2].c1cc[cH-]c1 [(S,Z)-4b]
97
